Target: Full length human PDE2A protease (Homo sapiens)
Construct: Full length human PDE2A protease; GST (N); host or cells: insect Sf9 cells (baculovirus)
Assay: In vitro evaluation of PDE2 phosphodiesterase inhibitory activity (Transcreener AMP2/GMP2 fluorescence polarization)
Assay type: biochemical
pIC50: −log10 of the molar value.
Reported pIC50 values for the following compounds.

STRUCTURE AS SMILES	PROPERTY	RESULT
COc1ccc(Cn2c(=O)c3c(ncn3C)n(C)c2=O)cn1	pIC50	4.30 to 5.00

From here, focus on the item given below.
Prompt: For the compound Cc1cc(CCCCn2c(=O)c3c(ncn3C)n(C)c2=O)on1 , give its measured pIC50 value.
Response: 4.30 to 5.00

###

Tested on: LPS-induced expression of TNF-α in rat blood
Assay: In vitro effect of the compound on LPS-induced expression of TNF-α in rat blood (ELISA)
Assay type: cell-based, Sprague Dawley rats
Conditions: final compound concentration 100 μM, 5 hours, plasma TNF-α by ELISA, read-out: TNF-α inhibitory ratio
Reported inhibition at 100 µM values for the following compounds.

Record excerpt, results attached:
STRUCTURE AS SMILES	TEST TARGET	inhibition at 100 µM
CC(C)c1cc(Cn2c(=O)c3c(ncn3C)n(C)c2=O)on1	LPS-induced expression of TNF-α in rat blood	60 to 80%
CC(C)c1cc(Cn2c(=O)c3c(ncn3CC3CC3)n(C)c2=O)on1	LPS-induced expression of TNF-α in rat blood	> 80%
Cc1cc(CCCCn2c(=O)c3cccnc3n(C)c2=O)on1	LPS-induced expression of TNF-α in rat blood	> 80%

From here, focus on the item given below.
Prompt: For the compound Cc1cc(CCCCn2cnn3cnc(CC(C)C)c3c2=O)on1 , give its measured inhibition at 100 µM value.
Response: 60 to 80%

###

Molecular target: Full length human PDE2A protease (Homo sapiens, UniProt O00408)
Construct: Full length human PDE2A protease; GST (N); host or cells: insect Sf9 cells (baculovirus)
Sequence (O00408 whole entry): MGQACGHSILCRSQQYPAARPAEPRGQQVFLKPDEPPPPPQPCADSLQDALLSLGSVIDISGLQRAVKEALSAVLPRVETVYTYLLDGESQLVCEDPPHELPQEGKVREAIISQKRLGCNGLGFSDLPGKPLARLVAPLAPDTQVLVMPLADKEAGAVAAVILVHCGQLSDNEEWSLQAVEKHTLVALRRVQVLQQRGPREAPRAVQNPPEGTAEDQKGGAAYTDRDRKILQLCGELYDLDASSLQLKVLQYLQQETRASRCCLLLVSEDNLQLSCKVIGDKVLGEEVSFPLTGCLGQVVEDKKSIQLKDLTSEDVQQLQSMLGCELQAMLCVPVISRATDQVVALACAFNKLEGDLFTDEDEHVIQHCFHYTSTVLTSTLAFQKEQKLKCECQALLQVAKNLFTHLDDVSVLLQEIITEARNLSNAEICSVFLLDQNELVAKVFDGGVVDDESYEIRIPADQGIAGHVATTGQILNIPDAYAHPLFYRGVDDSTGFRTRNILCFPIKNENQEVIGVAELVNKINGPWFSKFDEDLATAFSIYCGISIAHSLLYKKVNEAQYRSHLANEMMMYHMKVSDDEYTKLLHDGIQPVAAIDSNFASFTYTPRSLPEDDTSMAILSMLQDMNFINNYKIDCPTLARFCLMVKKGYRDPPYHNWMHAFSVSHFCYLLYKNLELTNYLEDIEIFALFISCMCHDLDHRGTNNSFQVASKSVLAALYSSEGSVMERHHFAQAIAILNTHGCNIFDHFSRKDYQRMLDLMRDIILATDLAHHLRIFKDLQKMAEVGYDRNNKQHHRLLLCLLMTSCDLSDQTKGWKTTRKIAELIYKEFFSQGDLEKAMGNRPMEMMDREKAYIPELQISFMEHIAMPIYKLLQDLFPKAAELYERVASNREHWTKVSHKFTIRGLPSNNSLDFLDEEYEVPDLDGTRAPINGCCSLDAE
Assay: In vitro evaluation of PDE2 phosphodiesterase inhibitory activity (Transcreener AMP2/GMP2 fluorescence polarization)
Assay type: biochemical
Conditions: recombinant full length human PDE2A, substrate 1 μM cGMP, 1 hour at room temperature; read-out: PDE2 phosphodiesterase inhibitory activity
Reported IC50 values for the following compounds.

Record excerpt, results attached:
STRUCTURE AS SMILES	RESULT
CCCn1cnc2c1c(=O)n(CCCCc1cc(C)no1)c(=O)n2C	1 to 10 µM
Cc1cc(CCCCn2c(=O)c3c(ncn3CC3(C)COC3)n(C)c2=O)on1	10 to 50 µM
Cn1cnc2c1c(=O)n(CCCc1nc3ccccc3s1)c(=O)n2C	10 to 50 µM

From here, focus on the item given below.
Prompt: For the compound CCCCn1cnc2c1c(=O)n(CCCCc1cc(C)no1)c(=O)n2C , give its measured IC50 value.
Response: 1 to 10 µM

###

Target: Full length human PDE2A protease (Homo sapiens)
Construct: Full length human PDE2A protease; GST (N); host or cells: insect Sf9 cells (baculovirus)
Assay: In vitro evaluation of PDE2 phosphodiesterase inhibitory activity (Transcreener AMP2/GMP2 fluorescence polarization)
Format: biochemical
Conditions: recombinant full length human PDE2A, substrate 1 μM cGMP, 1 hour at room temperature; read-out: PDE2 phosphodiesterase inhibitory activity
Reported IC50 values for the following compounds.

COMPOUND	TEST TARGET	IC50
CC(C)c1oncc1Cn1c(=O)c2c(ncn2CC2CC2)n(C)c1=O [Example 58]	Full length human PDE2A protease (Homo sapiens)	1 to 10 µM
CCc1cc(CCn2c(=O)c3c(ncn3C)n(C)c2=O)nn1C [Example 11 Product 2]	Full length human PDE2A protease (Homo sapiens)	10 to 50 µM

Prompt: For the compound Cc1cc(CC2CCCC(n3c(=O)c4c(ncn4C)n(C)c3=O)C2)on1 (stereo not drawn) [Example 28] , give its measured IC50 value.
Response: 1 to 10 µM

Prompt: For the compound Cn1nnnc1CCCCCn1c(=O)c2c(ncn2C)n(C)c1=O (single isomer, unassigned) [Example 40 Isomer 1] , give its measured IC50 value.
Response: 10 to 50 µM

Prompt: For the compound Cc1cc(CCCCn2c(=O)c3ccccc3n(C)c2=O)on1 [Example 83] , give its measured IC50 value.
Response: 10 to 50 µM

Prompt: For the compound Cc1cc(CCCCn2c(=O)c3cc[nH]c3n(C)c2=O)on1 [Example 66] , give its measured IC50 value.
Response: 10 to 50 µM
